# measuredTarget: T1, His9-hMSR1 (human MSR1 extracellular domain) (Homo sapiens, UniProt P21757)
# T1 construct: human MSR1 extracellular domain expressed with a N-terminal nonahistidine tag; purchased R&D Systems 2708-MS
# T1 sequence (P21757 77-451 limits assumed): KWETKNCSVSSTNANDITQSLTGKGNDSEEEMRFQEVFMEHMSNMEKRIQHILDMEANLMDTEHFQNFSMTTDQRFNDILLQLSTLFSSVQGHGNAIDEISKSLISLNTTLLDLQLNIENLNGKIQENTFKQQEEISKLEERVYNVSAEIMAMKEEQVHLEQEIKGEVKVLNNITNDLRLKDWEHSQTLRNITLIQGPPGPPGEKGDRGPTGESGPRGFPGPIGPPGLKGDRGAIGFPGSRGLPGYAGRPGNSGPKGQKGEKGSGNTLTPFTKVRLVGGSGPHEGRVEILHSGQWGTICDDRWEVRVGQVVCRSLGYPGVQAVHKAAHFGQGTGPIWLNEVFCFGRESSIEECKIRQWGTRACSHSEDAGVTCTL
# measurementDescription: Biacore surface plasmon resonance binding kinetics
# appliedConditions: 25° C.; * = no dissociation observed, kd fixed at 1.00E−05
observationType: kd (s⁻¹)
State the answer as a number, implicitly in s⁻¹.

Which kd value belongs to H1H27734P-N297Q (antibody, V domains shown) VH: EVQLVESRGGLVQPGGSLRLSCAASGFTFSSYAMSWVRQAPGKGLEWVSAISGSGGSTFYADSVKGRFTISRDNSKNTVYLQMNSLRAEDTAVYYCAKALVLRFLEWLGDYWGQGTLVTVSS VL: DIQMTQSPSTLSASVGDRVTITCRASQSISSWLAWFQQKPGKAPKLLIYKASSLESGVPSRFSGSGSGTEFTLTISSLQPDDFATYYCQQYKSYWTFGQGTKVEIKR ?
0.000596
